Lab note: IC50 readings collected with UniProtKB P17931 for the following compounds.

// below: answered compounds
compound	obs.value
CC(C)(C)OC(=O)N1CCC(C2=NOC(C[C@H]3O[C@H](CO)[C@H](O)[C@H](n4cc(-c5ccc(Cl)c(F)c5F)nn4)[C@H]3O)C2)CC1 (stereo partly shown)	82 nM
CO[C@@H]1[C@@H](n2cc(-c3cc(F)c(F)c(F)c3)nn2)[C@@H](O)[C@@H](CO)O[C@@H]1Cc1cc(C2(F)CC2)no1	160 nM
CO[C@@H]1[C@@H](n2cc(-c3cc(F)c(F)c(F)c3)nn2)[C@@H](O)[C@@H](CO)O[C@@H]1Cn1cc(C2CCN(S(=O)(=O)c3ccc(C)cc3)CC2)nn1	38 nM

Consider now this further compound.
Challenge: Looking for the measured IC50 of CC(C)(C)C(=O)N1CCC(c2cc(C[C@H]3O[C@H](CO)[C@H](O)[C@H](n4cc(-c5cc(F)c(F)c(F)c5)nn4)[C@H]3O)no2)CC1 , can you help?
Response given: 160 nM

---

Record type: pIC50 measurement. Applies to: human Gal-3 (hGal-3) (Homo sapiens (Human))
For clarity, pIC50 is expressed as the negative log10 of concentration in mol/L.

>>> print(df.to_string())
                                   compound  outcome_measure  obs_value
0  CO[C@@H]1[C@@H](n2cc(-c3ccc(C)c(F)c3F)nn2)[C@@H](O)[C@@H](CO)O[C@@H]1Cc1cc(C2CCC2O)on1 (stereo partly drawn) [Ex 1.346]            pIC50       7.00
1  CO[C@@H]1[C@@H](n2cc(-c3cc(F)c(F)c(F)c3)nn2)[C@@H](O)[C@@H](CO)O[C@@H]1Cc1cc(C2(C)CCOCC2)no1 [Ex 1.282]            pIC50       6.96

--- query ---
Challenge: Please provide the recorded pIC50 for CO[C@@H]1[C@@H](n2cc(-c3ccc(Cl)c(F)c3F)nn2)[C@@H](O)[C@@H](CO)O[C@@H]1Cc1cc(C(C)(C)C)on1 [Ex 1.190] , tested on human Gal-3 (hGal-3) (Homo sapiens (Human)).
Response given: 7.15

---

target: human Gal-3 (hGal-3) (Homo sapiens (Human), UniProt P17931)
Sequence (P17931 whole entry): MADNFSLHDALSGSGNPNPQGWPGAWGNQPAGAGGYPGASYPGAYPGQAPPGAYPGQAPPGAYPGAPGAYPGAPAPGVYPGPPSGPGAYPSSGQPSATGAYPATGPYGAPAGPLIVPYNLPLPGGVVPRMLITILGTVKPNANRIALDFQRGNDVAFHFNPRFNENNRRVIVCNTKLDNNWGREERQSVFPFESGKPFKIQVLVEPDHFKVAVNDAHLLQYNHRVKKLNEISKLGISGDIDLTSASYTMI
Simple rule here: IC50 less than 0.1 µM is Y, otherwise N.

Previously resolved entries follow.
compound	assigned.label
COCC(C)(C)c1cc(C[C@H]2O[C@H](CO)[C@H](O)[C@H](n3cc(-c4cc(F)c(F)c(F)c4)nn3)[C@H]2OC)on1	N
CO[C@@H]1[C@@H](n2cc(-c3ccccc3)nn2)[C@@H](O)[C@@H](CO)O[C@@H]1CC1CC(C2CCN(C(=O)OC(C)(C)C)CC2)=NO1 (some centres unmarked)	N
CO[C@@H]1[C@@H](n2cc(-c3cc(F)c(F)c(F)c3)nn2)[C@@H](O)[C@@H](CO)O[C@@H]1Cc1cn(C2CCN(S(=N)(=O)C(C)(C)C)CC2)nn1 (some centres unmarked)	Y
CO[C@@H]1[C@@H](n2cc(-c3ccc(C)c(F)c3F)nn2)[C@@H](O)[C@@H](CO)O[C@@H]1Cc1cc(C2(C)COC2)no1	Y
CO[C@@H]1[C@@H](n2cc(-c3ccc(Cl)c(F)c3)nn2)[C@@H](O)[C@@H](CO)O[C@@H]1CC1CC(C2CCN(C(=O)OC(C)(C)C)CC2)=NO1 (some centres unmarked)	N

Challenge: # TODO verify IC50 < 0.1 µM strictly for this compound: CO[C@@H]1[C@@H](n2cc(-c3cc(F)c(F)c(F)c3)nn2)[C@@H](O)[C@@H](CO)O[C@@H]1Cc1cc(C2CCC(NC(=O)OC(C)(C)C)CC2)no1 (some centres unmarked)
Response given: Y

Challenge: Does this compound meet the criterion IC50 < 0.1 µM? CCNC(=O)N1CCC(c2cc(C[C@H]3O[C@H](CO)[C@H](O)[C@H](n4cc(-c5cc(F)c(F)c(F)c5)nn4)[C@H]3OC)no2)CC1
Response given: Y

Challenge: API: query returns whether the compound falls strictly under 0.1 µM in IC50. Query: CO[C@@H]1[C@@H](n2cc(-c3ccc(Cl)c(F)c3F)nn2)[C@@H](O)[C@@H](CO)O[C@@H]1CC1CC(C(C)(C)C)=NO1 (some centres unmarked)
Response given: Y
